test-summary: Selectivity index, ratio of IC50 for cytotoxicity against human MRC5 cells assessed as inhibition of cell growth to IC50 for antimalarial activity against […] assessed as parasite growth inhibition
Assay type: toxicity, cell-based
measurement-setup: MRC5 cells versus Plasmodium falciparum FCR3, read-out: Ratio IC50
observable: selectivity ratio

Short answer for C[C@@H]1CC[C@H]2[C@@H](C)C(=O)O[C@@H]3O[C@@]4(C)CC[C@@H]1[C@]32OO4 : selectivity ratio was > 800

----------
test-summary: Selectivity index, ratio of IC50 for cytotoxicity against human MRC5 cells assessed as inhibition of cell growth to IC50 for antimalarial activity against chloroquine-resistant Plasmodium falciparum K1 assessed as parasite growth inhibition
Assay type: toxicity, cell-based
measurement-setup: MRC5 cells versus Plasmodium falciparum K1, read-out: Ratio IC50
observable: selectivity ratio

Given item C[C@@H]1CC[C@H]2[C@@H](C)C(=O)O[C@@H]3O[C@@]4(C)CC[C@@H]1[C@]32OO4 , the value recorded as its selectivity ratio is > 800

----------
test-summary: Cytotoxicity against human MRC5 cells assessed as inhibition of cell growth
Type: toxicity, cell-based
The entries below are paired with their reported pIC50.
pIC50 here is simply -log10 of the concentration when that concentration is written in mol/L.

In the examples that follow, each entry is paired with its recorded pIC50.
{"columns": ["compound", "pIC50"],
 "data": [
  ["C=CC(C)(C)c1c(O)cc2c(c1O)C(=O)[C@@](C)(O)[C@H](CC=C(C)C)C2=O", 4.03],
  ["C=CC(C)(C)c1c(O)cc2c(c1O)C(=O)[C@@](C)(O)[C@@H](CC=C(C)C)C2=O", 4.16],
  ["COC1=C(C)C(=O)c2c(cc3c(c2O)C(C)(CCC=C(C)C)C(C)O3)C1=O (stereo unspecified)", 5.77]
]}

Could you now look at the following compound, please?
response.value for C=CC(C)(C)c1c(O)cc2c(c1O)C(=O)[C@@]1(C)O[C@@]1(CC=C(C)C)C2=O (field: pIC50) = 6.15

----------
test-summary: Selectivity index, ratio of IC50 for cytotoxicity against human MRC5 cells assessed as inhibition of cell growth to IC50 for antiplasmodial activity against chloroquine-resistant Plasmodium falciparum K1 assessed as parasite growth inhibition
Format: toxicity, cell-based
measurement-setup: MRC5 cells versus Plasmodium falciparum K1, read-out: Ratio IC50
// values below are reported selectivity ratio
Give the figure only, with no unit attached.

{"columns": ["compound", "observable", "data-value"],
 "data": [
  ["C=CC(C)(C)c1c(O)cc2c(c1O)C(=O)[C@@](C)(O)[C@@H](CC=C(C)C)C2=O", "selectivity ratio", 4.7],
  ["C=CC(C)(C)c1c(O)cc2c(c1O)C(=O)[C@@](C)(O)[C@H](CC=C(C)C)C2=O", "selectivity ratio", 2.2],
  ["COC1=C(C)C(=O)c2c(cc3c(c2O)C(C)(CCC=C(C)C)C(C)O3)C1=O (centres undefined)", "selectivity ratio", 5.7]
]}

// selectivity ratio value for C=CC(C)(C)c1c(O)cc2c(c1O)C(=O)[C@@]1(C)O[C@@]1(CC=C(C)C)C2=O : 3.5
